# Tested on: A431 (human)
# Method: cells
# Test Conditions: A431, 72 h
pIC50: −log10 of the molar value.
Measurement Type: pIC50

1. COc1cc2ncnc(Nc3cccc(C(F)(F)F)c3)c2cc1OCCCSc1nc2ccccc2s1
5.39
2. CCCCc1nc(Cl)c(C=O)n1CCCOc1cc2c(Nc3ccc(F)c(Cl)c3)ncnc2cc1OC
5.30
3. CCCCc1nc(Cl)c(CO)n1CCCOc1cc2c(Nc3ccc(F)c(Cl)c3)ncnc2cc1OC
5.22
4. COc1ccc(Nc2ncnc3cc(OC)c(OCCCSc4nc5ccccc5s4)cc23)cc1
4.85
5. CCc1cc(Br)ccc1Nc1ncnc2cc(OC)c(OCCCSc3nc4ccccc4o3)cc12
4.76

P = CCCCc1nc(Cl)c(C=O)n1CCCOc1cc2c(Nc3ccc(Br)cc3CC)ncnc2cc1OC
Q = COc1cc2ncnc(Nc3cccc(C(F)(F)F)c3)c2cc1OCCCSc1nc2ccccc2o1
R = COc1ccc(Nc2ncnc3cc(OC)c(OCCCSc4nc5ccccc5o4)cc23)cc1
Request: Hi! Can you put these in order of pIC50, lowest number first? Answer format: the labels, in the requested order.
Result: R, P, Q

I = CCCCc1nc(Cl)c(CO)n1CCCOc1cc2c(Nc3ccc(Br)cc3CC)ncnc2cc1OC
II = CCc1cc(Br)ccc1Nc1ncnc2cc(OC)c(OCCCSc3nc4ccccc4s3)cc12
III = CCCCc1nc(Cl)c(CO)n1CCCOc1cc2c(Nc3ccc(OC)cc3)ncnc2cc1OC
Request: Order these by pIC50, descending, and give the full ranking. As an answer, provide the labels arranged in the order called for.
Result: II, I, III
(II: 5.23, I: 4.98, III: 4.70)

A = CCCCc1nc(Cl)c(CO)n1CCCOc1cc2c(Nc3cccc(C(F)(F)F)c3)ncnc2cc1OC
B = CCCCc1nc(Cl)c(C=O)n1CCCOc1cc2c(Nc3ccc(OC)cc3)ncnc2cc1OC
C = COc1cc2ncnc(Nc3ccc(F)c(Cl)c3)c2cc1OCCCSc1nc2ccccc2o1
Request: // ranking: key=pIC50, reverse=True Put the labels in the order asked and list them.
Result: C, A, B

a = CCCCc1nc(Cl)c(CO)n1CCCOc1cc2c(Nc3cccc(Br)c3)ncnc2cc1OC
b = CCCCc1nc(Cl)c(C=O)n1CCCOc1cc2c(Nc3cccc(C(F)(F)F)c3)ncnc2cc1OC
Request: For the pair a and b , which member has the lower pIC50 number? Indicate your choice by writing its label.
Result: a

---

# Tested on: MCF-7 (human)
# Method: cells
# Test Conditions: MCF-7, 72 h
Measurement Type: IC50 (µM)

1. COc1cc2ncnc(Nc3cccc(C(F)(F)F)c3)c2cc1OCCCSc1nc2ccccc2o1
37.3
2. COc1cc2ncnc(Nc3ccc(F)c(Cl)c3)c2cc1OCCCSc1nc2ccccc2o1
37
3. CCCCc1nc(Cl)c(C=O)n1CCCOc1cc2c(Nc3cccc(I)c3)ncnc2cc1OC
32.6
4. CCCCc1nc(Cl)c(C=O)n1CCCOc1cc2c(Nc3cccc(C(F)(F)F)c3)ncnc2cc1OC
38.8
5. COc1cc2ncnc(Nc3cccc(C(F)(F)F)c3)c2cc1OCCCSc1nc2ccccc2s1
35.9
